Target: Neuromedin-K receptor (Homo sapiens)
Sequence (P29371 whole entry): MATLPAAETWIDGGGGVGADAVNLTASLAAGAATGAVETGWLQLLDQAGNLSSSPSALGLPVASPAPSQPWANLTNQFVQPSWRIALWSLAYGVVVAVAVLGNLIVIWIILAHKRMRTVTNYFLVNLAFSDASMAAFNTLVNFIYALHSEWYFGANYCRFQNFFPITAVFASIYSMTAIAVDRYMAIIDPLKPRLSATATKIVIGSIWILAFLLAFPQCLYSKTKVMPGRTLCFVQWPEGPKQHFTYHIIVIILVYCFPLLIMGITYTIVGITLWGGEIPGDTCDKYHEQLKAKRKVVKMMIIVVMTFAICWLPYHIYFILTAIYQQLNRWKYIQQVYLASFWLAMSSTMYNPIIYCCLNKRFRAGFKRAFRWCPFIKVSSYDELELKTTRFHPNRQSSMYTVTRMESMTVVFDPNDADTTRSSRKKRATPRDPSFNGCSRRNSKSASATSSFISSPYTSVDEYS
Assay: [3H]SR142801 Competition Binding Assay: hNK3 receptor binding experiment were performed using [3H]SR142801 (Catalog No. TRK1035, specific activity: 74.0 Ci/mmol, Amersham, GE Healthcare UK limited, Buckinghamshire, UK) and membrane isolated from HEK293 cells transiently expressing recombinant human NK3 receptor. After thawing, the membrane homogenates were centrifuged at 48,000×g for 10 mM at 4° C., the pellets were resuspended in the 50 mM Tris-HCl, 4 mM MnCl2, 1 μM phosphoramidon, 0.1% BSA binding buffer at pH 7.4 to a final assay concentration of 5 μg protein/well. For inhibition experiments, membranes were incubated with [3H]SR142801 at a concentration equal to KD value of radioligand and 10 concentrations of the inhibitory compound (0.0003-10 μM) (in a total reaction volume of 500 μl) for 75 min at room temperature (RT). At the end of the incubation, membranes were filtered onto unitfilter (96-well white microplate with bonded GF/C filter preincubated 1 h in 0.3% PEI+0.3% BSA, Packard BioScience, Meriden, Conn.) with a Filtermate 196 harvester (Packard BioScience) and washed 4 times with ice-cold 50 mM Tris-HCl, pH 7.4 buffer. Nonspecific binding was measured in the presence of 10 μM SB222200 for both radioligands. The radioactivity on the filter was counted (5 min) on a Packard Top-count microplate scintillation counter with quenching correction after addition of 45 μl of microscint 40 (Canberra Packard S.A., Zürich, Switzerland) and shaking for 1 h.
pKi: −log10 of the molar value.
Below is a list of entries, each paired with its recorded pKi value.
measure.name: pKi

chemical.structure: CCN(C(=O)Oc1ccc(F)cc1)[C@@H]1CN(C(=O)C2CCN(c3ccc(C(F)(F)F)cn3)CC2)C[C@H]1c1ccc(F)c(F)c1
measure.name: pKi
value.observed: 8.05
//
chemical.structure: CCN(C(=O)Oc1ccc(F)cc1)[C@@H]1CN(C(=O)C2CCN(c3ccc(OC(C)=O)cn3)CC2)C[C@H]1c1ccc(Cl)cc1
measure.name: pKi
value.observed: 8.22
